Reference source: patent US12006328B2

- tested_target: GluN2C-containing NMDA receptors (Homo sapiens, UniProt Q14957)
- Sequence (Q14957 20-1233, other chains not shown): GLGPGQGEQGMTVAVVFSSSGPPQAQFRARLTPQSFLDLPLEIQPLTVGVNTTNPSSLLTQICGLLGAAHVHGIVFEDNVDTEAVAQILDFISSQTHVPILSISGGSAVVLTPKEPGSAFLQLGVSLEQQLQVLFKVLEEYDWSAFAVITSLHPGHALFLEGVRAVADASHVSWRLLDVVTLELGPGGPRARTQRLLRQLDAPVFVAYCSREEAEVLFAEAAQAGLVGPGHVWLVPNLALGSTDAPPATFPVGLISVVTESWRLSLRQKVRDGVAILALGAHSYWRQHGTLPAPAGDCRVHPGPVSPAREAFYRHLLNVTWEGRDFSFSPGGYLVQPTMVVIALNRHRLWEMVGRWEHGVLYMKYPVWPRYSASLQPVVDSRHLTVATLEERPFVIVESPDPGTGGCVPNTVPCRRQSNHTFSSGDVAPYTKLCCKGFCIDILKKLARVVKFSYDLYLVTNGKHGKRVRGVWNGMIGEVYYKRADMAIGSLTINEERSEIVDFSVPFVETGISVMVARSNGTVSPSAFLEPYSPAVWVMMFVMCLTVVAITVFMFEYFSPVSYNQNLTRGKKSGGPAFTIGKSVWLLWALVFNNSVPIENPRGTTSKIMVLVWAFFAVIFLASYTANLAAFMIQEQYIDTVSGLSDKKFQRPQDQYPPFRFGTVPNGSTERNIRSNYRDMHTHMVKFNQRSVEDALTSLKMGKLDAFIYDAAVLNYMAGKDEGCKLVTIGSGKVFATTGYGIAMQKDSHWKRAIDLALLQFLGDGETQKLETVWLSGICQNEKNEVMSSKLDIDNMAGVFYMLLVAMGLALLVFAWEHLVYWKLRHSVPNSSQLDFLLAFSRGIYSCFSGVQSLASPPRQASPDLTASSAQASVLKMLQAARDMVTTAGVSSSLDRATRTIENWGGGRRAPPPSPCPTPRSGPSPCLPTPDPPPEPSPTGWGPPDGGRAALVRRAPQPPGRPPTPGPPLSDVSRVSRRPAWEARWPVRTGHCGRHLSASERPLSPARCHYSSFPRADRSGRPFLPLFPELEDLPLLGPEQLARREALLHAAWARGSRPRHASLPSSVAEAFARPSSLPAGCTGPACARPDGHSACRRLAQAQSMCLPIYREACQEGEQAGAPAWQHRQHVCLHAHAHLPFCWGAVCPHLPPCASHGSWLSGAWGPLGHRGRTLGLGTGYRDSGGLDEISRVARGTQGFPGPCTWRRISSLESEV
- test: Two-electrode voltage-clamp recordings from Xenopus laevis oocytes, GluN2C
- Type: cell-based
- experimental_setup: 10 μM test compound with glutamate 100 μM and glycine 30 μM; percent of response without compound; Tables 1-5
readout_label: I10 μM/ICONTROL (mean ± SEM, %) Glu N2C

1. Cc1sc2ncn(Cc3cn(CCC4OCCCO4)nn3)c(=O)c2c1-c1cccc(Cl)c1 : 88
2. Cc1sc2ncn(CC(=O)N3CCCC3)c(=O)c2c1-c1cc(I)cc(I)c1 : 167
3. CON(C)C(=O)Cn1cnc2sc(C)c(-c3cccc(I)c3)c2c1=O : 109
4. COc1ccc(C(=O)Cn2cnc3sc4c(c3c2=O)CCCC4)c(OC)c1 : 94

I: Cc1sc2ncn(CC(=O)NCC(=O)O)c(=O)c2c1-c1ccc(Cl)cc1
II: [N-]=[N+]=Nc1ccc(-c2csc3ncn(CC(=O)N4CCCC4)c(=O)c23)cc1
Ask: Which is greater in I10 μM/ICONTROL (mean ± SEM, %) Glu N2C, the first item I or the second item II ? Give the label under which the chosen entry appears.
Result: II
(II: 166%, I: 105%)
